Biological target: 15-PGDH in A549 cells (Homo sapiens, UniProt P15428)
Construct: endogenous in cells
Sequence (P15428 whole entry): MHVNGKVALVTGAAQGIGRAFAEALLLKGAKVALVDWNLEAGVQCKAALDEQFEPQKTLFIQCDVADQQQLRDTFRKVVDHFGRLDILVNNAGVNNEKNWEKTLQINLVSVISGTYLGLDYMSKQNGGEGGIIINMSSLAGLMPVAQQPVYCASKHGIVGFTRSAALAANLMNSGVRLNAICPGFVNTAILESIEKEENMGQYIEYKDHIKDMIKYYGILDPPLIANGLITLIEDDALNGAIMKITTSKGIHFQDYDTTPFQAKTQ
Assay: A549 cellular 15-PGDH assay (PGE2 accumulation, HTRF)
Conditions: interleukin-stimulated, inhibitor 24 hrs, PGE2 by competitive HTRF, read-out: A549 Cell Assay IC50
metric_name: IC50 (nM)

Some solved cases for reference:
compound | test_target | number
Cn1cc2cc(-c3ncc4cc(C5(O)CC(C)(C)C5)sc4n3)cnc2n1 | 15-PGDH in A549 cells (Homo sapiens, UniProt P15428) | 0.143
CO[C@H]1CC[C@@]1(O)c1cc2ccc(-c3cnc4nn(C)cc4c3)nc2s1 (single isomer, unassigned) [Compound C70SS] | 15-PGDH in A549 cells (Homo sapiens, UniProt P15428) | 316

A = Cn1cc2cc(-c3ccc4cc(C5(O)CC5)sc4n3)cnc2n1
B = Cc1nc2ncc(-c3ccc4cc(C5(O)CC(F)(F)C5)sc4n3)cc2o1
IC50 comparison. Which is larger, A or B ? Answer by stating the label of the chosen item.
A
(A: 26.7 nM, B: 1.35 nM)

----------
Molecular target: 15-PGDH in A549 cells (Homo sapiens)
Construct: endogenous in cells
Experiment: A549 cellular 15-PGDH assay (PGE2 accumulation, HTRF)
Settings: interleukin-stimulated, inhibitor 24 hrs, PGE2 by competitive HTRF, read-out: A549 Cell Assay IC50
metric_name: IC50 (nM)

Some solved cases for reference:
compound | metric_name | number
Cn1cc2cc(-c3ccc4cc([C@H](O)[C@H]5CCC5(F)F)sc4n3)cnc2n1 (single isomer, unassigned) [Compound B94RR] | IC50 | 0.661
Cn1cc2cc(-c3ncc4cc([C@H](O)C5CC(F)(F)C5)sc4n3)cnc2n1 (single isomer, unassigned) [Compound B75R] | IC50 | 0.0162
Cn1cc2cc(-c3ccc4cc(C5(O)CC6(CCCC6)C5)sc4n3)cnc2n1 | IC50 | 0.0361
CO[C@]1(C)C[C@](O)(c2cc3ccc(-c4cnc5c(c4)nnn5C)nc3s2)C1 (single isomer, unassigned) [Compound C102T] | IC50 | 5.77

P = Cn1cc2cc(-c3ccc4cc(C5(O)CC(F)(F)C5)sc4c3)cnc2n1
Q = Cn1nnc2cc(-c3ccc4cc([C@]5(O)C[C@](C)(C#N)C5)sc4n3)cnc21 (single isomer, unassigned) [Compound C104T]
IC50 comparison. Which is larger, P or Q ? Answer by stating the label of the chosen item.
P
(P: 7.36 nM, Q: 1.44 nM)

----------
Target: human recombinant 15-PGDH (Homo sapiens, UniProt P15428)
Sequence (P15428 whole entry): as above
Experiment: Recombinant 15-PGDH enzymatic inhibition assay (PGDH-Lumi, NADH signal)
Format: biochemical
Details: recombinant 15-PGDH; 15 min pre-incubation, 60 min reaction with PGE2 and NAD+, NADH signal
pIC50: −log10 of the molar value.
metric_name: pIC50

Some solved cases for reference:
molecule | test_target | pIC50
CN1CC(C(O)c2cc3ccc(-c4cnc5nn(C)cc5c4)nc3s2)C1 (stereo not shown) | human recombinant 15-PGDH (Homo sapiens, UniProt P15428) | 7.89
Cn1cc2cc(-c3ccc4cc(C5(O)CC(F)(F)C5)sc4n3)cnc2n1 | human recombinant 15-PGDH (Homo sapiens, UniProt P15428) | 9.43
Cc1c([C@H](CO)C2CC(F)(F)C2)sc2nc(-c3cnc4nn(C)cc4c3)ccc12 (single isomer, unassigned) [Compound B93S] | human recombinant 15-PGDH (Homo sapiens, UniProt P15428) | 8.58
Cn1cc2cc(-c3ncc4cc([C@@H](O)C5CC(F)(F)C5)sc4n3)cnc2n1 (single isomer, unassigned) [Compound B75S] | human recombinant 15-PGDH (Homo sapiens, UniProt P15428) | 7.60

I = CC[C@H](O)c1cc2c(C3CC3)cc(-c3cnc4nn(C)cc4c3)nc2s1 (single isomer, unassigned) [Compound B13S]
II = CN1CCC(O)(c2cc3ccc(-c4cnc5nn(C)cc5c4)nc3s2)C1 (stereo not shown)
III = Cn1cc2cc(-c3ccc4cc([C@H](O)[C@H]5C[C@H](C(F)(F)F)C5)sc4n3)cnc2n1 (single isomer, unassigned) [Compound B84RT]
// ranking: key=pIC50, reverse=True API: response body holds the labels in the requested order.
III, I, II
